Hello, the source for this data is the supplement of paper PMC11208160, in case you need it.

Assay: recombinant UMI read abundance after kanamycin selection (control-corrected) (log10(CPM+1)); higher = more efficient recombination; extreme values may be limits of the assay; sequences stand for … in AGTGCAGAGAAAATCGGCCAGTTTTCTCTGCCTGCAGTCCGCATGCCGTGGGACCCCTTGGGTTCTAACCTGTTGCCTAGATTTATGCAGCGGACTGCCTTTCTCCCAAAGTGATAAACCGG…AGGTTGGTTTCACT; site = the 11-nt donor;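 note: IS621 bridge recombinase in Escherichia coli cells against a fixed T5 target plasmid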
MEASURED_QUANTITY: recombinant UMI read abundance (log10)
Reply with the value as a number alone.

Example entries begin here.
MACROMOLECULE_SEQUENCE	MEASURED_QUANTITY	TEST_VALUE
CGGAAACCATGGACCGGTTTTCCCGGTAATCCGTATTTGTA (site CGGAATCCTAA)	recombinant UMI read abundance (log10)	0
TTCGCTGCATGGACCGGTTTTCCCGGTAATCCGTATTTGTG (site TTGGCTGCTCA)	recombinant UMI read abundance (log10)	0.0131
ATTTCACCATGGACCGGTTTTCCCGGTAATCCGTATTTGGC (site ATTTCACCTGC)	recombinant UMI read abundance (log10)	0
AGGGACCCATGGACCGGTTTTCCCGGTAATCCGTATTTGAA (site AGGGACCCTTT)	recombinant UMI read abundance (log10)	0.531

Short answer for GCGGATGCATGGACCGGTTTTCCCGGTAATCCGTATTTGAA (site GCGGATGCTTT) : recombinant UMI read abundance (log10) was 2.38

Memo: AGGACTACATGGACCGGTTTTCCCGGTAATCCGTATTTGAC (site CGGACTACTGT) , reported recombinant UMI read abundance (log10): 0.831
